Test system: normal mice
test-method-notes: in vivo
condition: Table 1, formula I compounds; method of test example 1
attribute-measured: LD50 (mmol/kg)

compound="O=C1[O][Pt]2([NH]C3CCCCC3[NH]2)[O]C(=O)C1CCCCN1CCOCC1 (stereo not shown)" measurement=0.654
compound="CC1CCCN1CCCCC1C(=O)[O][Pt]2([NH]C3CCCCC3[NH]2)[O]C1=O (stereo not shown)" measurement=0.818
compound="CCN(C)CC(CCC1C(=O)[O][Pt][O]C1=O)OC.NC1CCCCC1N (stereo not shown)" measurement=0.732
compound="CCN(C)CC(O)CCC1C(=O)[O][Pt][O]C1=O.NC1CCCCC1N (stereo not shown)" measurement=0.792
